Values from patent US8822449B2

molecular target: sodium-proton exchanger of subtype 3 (NHE3) (Homo sapiens); construct: expressed in transfected cells; test: Recovery of intracellular pH (pHi) after acidification in LAP1 cells stably expressing NHE3 (BCECF fluorescence, FLIPR); type: cell-based; details: LAP1 cells stably expressing NHE3; pH recovery after acidification; range 1 is % inhibition at 10 μM; read-out: Activity range (inhibitory effect on NHE3)
Sequence (P48764 26-834, species assumed): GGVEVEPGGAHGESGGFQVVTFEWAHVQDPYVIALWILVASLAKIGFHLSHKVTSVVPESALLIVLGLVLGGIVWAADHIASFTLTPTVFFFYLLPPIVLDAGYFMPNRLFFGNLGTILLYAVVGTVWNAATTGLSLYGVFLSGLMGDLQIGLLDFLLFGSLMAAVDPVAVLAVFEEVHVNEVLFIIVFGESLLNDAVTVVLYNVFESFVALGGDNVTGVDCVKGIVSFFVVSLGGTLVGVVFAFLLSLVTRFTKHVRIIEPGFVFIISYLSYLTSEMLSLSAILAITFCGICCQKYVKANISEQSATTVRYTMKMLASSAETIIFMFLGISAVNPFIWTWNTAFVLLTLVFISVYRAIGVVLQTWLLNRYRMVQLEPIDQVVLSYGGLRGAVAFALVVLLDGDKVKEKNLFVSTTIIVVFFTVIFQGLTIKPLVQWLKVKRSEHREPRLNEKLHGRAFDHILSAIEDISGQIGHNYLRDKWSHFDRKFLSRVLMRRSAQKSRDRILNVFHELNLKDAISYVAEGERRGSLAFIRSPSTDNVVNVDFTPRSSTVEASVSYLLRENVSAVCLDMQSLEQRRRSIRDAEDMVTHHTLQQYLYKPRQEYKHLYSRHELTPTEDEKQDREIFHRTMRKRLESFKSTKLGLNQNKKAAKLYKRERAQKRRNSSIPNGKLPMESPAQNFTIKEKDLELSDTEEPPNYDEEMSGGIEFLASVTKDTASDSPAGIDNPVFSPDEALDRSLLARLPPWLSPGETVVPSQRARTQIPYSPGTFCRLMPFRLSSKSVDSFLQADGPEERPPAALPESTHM
pIC50: −log10 of the molar value.
I'd appreciate it if you could supply pIC50 values for the items below.

Query: Bench note: what pIC50 did CCc1nnc(C(C)C)n1-c1ccc(O[C@H]2c3cc(Cl)cc(F)c3C[C@@H]2N2CC[C@@H](O)C2)cc1 show?
Response: 5.00 to 6.00

Query: Would you mind telling me what pIC50 value was observed for CN1CC(=O)N(c2ccc(Cl)c(O[C@H]3c4cc(Cl)cc(Cl)c4C[C@@H]3N3CC[C@@H](O)C3)c2)C1=O ?
Response: > 6.00

Query: // returns reported pIC50 for input CS(=O)(=O)c1ccc(O[C@H]2c3cc(Cl)cc(F)c3C[C@@H]2N2CCCC2)cc1 (racemic)
Response: 5.00 to 6.00
